Source: ChEMBL document CHEMBL1201862

System: OVCAR-5
Experiment: NCI tumour cell line growth inhibition, 48 h
The source made the active and inactive calls. Rule as the data show it: active = GI50 up to about 1.1 µM and inactive = higher.
Possible outcomes: active, inactive

In [3]: df
Out[3]:
                                   molecule  class_assignment
0  Cc1cccc(NC(=S)N/N=C(/c2ccccc2)c2ccccn2)c1            active
1  COc1ccc(C(NCCNC(c2ccc(OC)c(OC)c2)c2cc3c(cc2O)OCO3)c2cc3c(cc2O)OCO3)cc1OC (stereo not drawn)          inactive
2                           O=CC12CCCN1CCC2          inactive

====

Test system: BT-549
Assay: NCI tumour cell line growth inhibition, 48 h
Activity calls are given as the source filed them. Rule as the data show it: active = GI50 up to about 1.1 µM and inactive = higher.
// reported GI50 per item
Readout type: GI50

In [3]: df
Out[3]:
                                   molecule               result
0   COC(NC(=O)Nc1ccccc1C)(C(F)(F)F)C(F)(F)F   94.4 µM (inactive)
1      OCC1NC(CO)C(O)C1O (stereo not drawn)  > 100 µM (inactive)
2  CCOC(=O)c1ccc(Nc2cnc3cc(C(F)(F)F)ccc3n2)cc1  > 100 µM (inactive)
3      O=C(c1cccs1)N1CCCN(C(=O)c2cccs2)C1=S  > 100 µM (inactive)
4  COC(=O)C1CC23C=CCN4CC(C2C)C2(c5ccccc5NC12)C43 (stereo not drawn)  > 100 µM (inactive)
5  CC(=O)OC1=CC2(OC(C)=O)CC(C)(C)C1C1C(=O)C=CC(=O)C12 (stereo not drawn)   11.3 µM (inactive)
6  CC(C(=O)OCc1ccccc1)(c1ccco1)N1C(=O)OC(c2ccccc2)C1c1ccccc1 (stereo not drawn)  > 100 µM (inactive)
7               Nn1c(SCC(=O)O)nc2ccccc2c1=O  > 100 µM (inactive)

====

System: OVCAR-5
Assay: NCI tumour cell line growth inhibition, 48 h
The source made the active and inactive calls. No stated cut-off is given here; in the data, active = GI50 up to about 1.1 µM and inactive = higher.
Readout type: GI50

                                 smiles_str  system_name               result
0  NC(=O)N1N=C2c3ccccc3OC[C@H]2[C@@H]1c1ccccc1      OVCAR-5   20.1 µM (inactive)
1  CCCCCN(CCCCC)C(=O)[C@@H](CCC(=O)OCc1ccccc1)NC(=O)c1cc2ccccc2[nH]1      OVCAR-5  > 100 µM (inactive)
2    COc1c(O)cc2oc(-c3ccc(O)cc3)cc(=O)c2c1O      OVCAR-5   75.2 µM (inactive)

====

System: CCRF-CEM
Experiment: NCI tumour cell line growth inhibition, 48 h
Calls of active or inactive are those of the source. No stated cut-off is given here; in the data, active = GI50 up to about 1.1 µM and inactive = higher.
Outcomes: active, inactive

>>> df
                                   compound  class_assignment
0  C[N+](C)([O-])CCCNc1c2ccccc2nc2cccc([N+](=O)[O-])c12            active
1  Cn1c(=O)c(C(=O)NC(=O)NCCCCCOC(=O)CCCCCCCCCCC(=O)OCCCCCNC(=O)NC(=O)c2cn(Cc3ccccc3)c(=O)n(C)c2=O)cn(Cc2ccccc2)c1=O          inactive
2  CC(=O)N(CCc1ccccc1)C(C#N)c1ccc(OCCCCCCCCCCOc2ccc(C(C#N)N(CCc3ccccc3)C(C)=O)cc2)cc1 (stereo not drawn)          inactive
